Please respond with reported Km for every item in the list.
molecular target: TLP-ste (C288L/N181C) (Geobacillus stearothermophilus, UniProt P06874, C520L/N413C); details: corrected for IFE and FRET efficiency; Michaelis-Menten fit; 1 nM TLP-ste, 20 mM MOPS pH 7.4, 5 mM CaCl2, 10% DMSO, 30 °C; donor λex 490/λem 520 nm; mean ± SD, triplicate
Just the number in µM, nothing appended.

Give the measured Km of CF-PAGLAC(AF674)-NH2 [4aa-AF647] .
53.3

Item under review: CF-PVAGLAGC(Cy5)-NH2 [6aa-Cy5] . Reported Km?
11.6

Could you tell me which Km is on file for CF-PSVAGLAGGC(AF647)-NH2 [8aa-AF647] ?
77.6

Looking for the measured Km of CF-PSVAGLAGGC(Cy5)-NH2 [8aa-Cy5] , can you help?
17.6

Quick one: Km of CF-PAGLAC(Cy5)-NH2 [4aa-Cy5] ?
2.4

* * *

Answer each item with its documented log10 kcat.
biological target: TLP-ste (C288L/N181C) (Geobacillus stearothermophilus, UniProt P06874, C520L/N413C); conditions: correction: none; vmax divided by enzyme concentration
Scale: decimal log of kcat, kcat in s⁻¹.

What does the record list as log10 kcat for CF-PSVAGLAGGC(AF647)-NH2 [8aa-AF647] ?
0.09

What does the data say about its log10 kcat? Entry: CF-PAGLAC(Cy5)-NH2 [4aa-Cy5]
-0.59

Give its log10 kcat value. Item: CF-PVAGLAGC(Cy5)-NH2 [6aa-Cy5]
0.26

Which log10 kcat value belongs to CF-PSVAGLAGGC(Cy5)-NH2 [8aa-Cy5] ?
0.55

What value of log10 kcat has been reported for the following substance? CF-PAGLAC(AF674)-NH2 [4aa-AF647]
-0.72

* * *

target: TLP-ste (C288L/N181C) (Geobacillus stearothermophilus, UniProt P06874, C520L/N413C); conditions: correction: FRET efficiency only; calculated from kcat and KM
measured_metric: log10 of kcat/KM (log10 of the value in M⁻¹ s⁻¹)
# values: log10(kcat/KM), units M⁻¹ s⁻¹

# input substance: CF-PVAGLAGC(Cy5)-NH2 [6aa-Cy5] ; wanted: its log10 of kcat/KM
5.43

May I ask what log10 of kcat/KM has been recorded for CF-PAGLAC(AF674)-NH2 [4aa-AF647] ?
4.15

I am curious: what log10 of kcat/KM value has been reported for CF-PSVAGLAGGC(AF647)-NH2 [8aa-AF647] ?
4.88

Entry CF-PSVAGLAGGC(Cy5)-NH2 [8aa-Cy5] has what log10 of kcat/KM?
5.66

Dear colleague, I am looking for the recorded log10 of kcat/KM of the following substance: CF-PAGLAC(Cy5)-NH2 [4aa-Cy5]
5.24

* * *

target: TLP-ste (C288L/N181C) (Geobacillus stearothermophilus, UniProt P06874, C520L/N413C); details: correction: FRET efficiency only; Michaelis-Menten fit; mean ± SD, triplicate
With a cut-off of 7 µM, any Km strictly below it is called Satisfied; any Km meeting it or above is called Not satisfied.

Would you kindly verify if Km of CF-PSVAGLAGGC(Cy5)-NH2 [8aa-Cy5] is strictly less than 7 µM?
Not satisfied

Check if Km falls below 7 µM for CF-PSVAGLAGGC(AF647)-NH2 [8aa-AF647] .
Not satisfied

For this substance, is Km lower than 7 µM? CF-PAGLAC(AF674)-NH2 [4aa-AF647]
Not satisfied

In plain terms, does CF-PAGLAC(Cy5)-NH2 [4aa-Cy5] come in under 7 µM for Km?
Satisfied

Data provenance is paper PMC6641592.
